target_under_test: T1, hVISTA-ECD 6-His tag (human, UniProt Q9H7M9 33-193)
T1 construct: also called monovalent hVISTA-ECD; human VISTA
test_protocol: SPR, Ab on Protein A, hVISTA analyte, pH 6.0
value_type: Kd (nM)
Enter your answer as a number in nM; do not include the unit.

Check out these entries, answers already filled in.
Kindly note the recorded Kd for P1-070976 (41F11_VH_T28P_Y50W_S55E_D95H_L96E_P97E_Y100E; Vk_A64G) (antibody, V domains shown, They look like Kabat positions on the mature VH, but no numbering scheme is stated; also called P1-070976-11) VH: QVQLVESGGGLVKPGGSLRLSCAASGFPFSDYYMSWIRQAPGKGLEWVSWISNSGEPIYYADSVKGRFTISRDNAKNSLYLQMNSLRAEDTAVYYCARHEEGWEFDLWGRGTLVTVSS VL: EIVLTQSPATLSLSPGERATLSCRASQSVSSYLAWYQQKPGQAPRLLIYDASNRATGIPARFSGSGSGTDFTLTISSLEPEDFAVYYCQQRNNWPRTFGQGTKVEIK , which is 9.9

Kindly note the recorded Kd for P1-061520 (41F11 VK_A64G) (antibody, V domains shown, also called P1-061520-21; VISTA.4.A64G) VH: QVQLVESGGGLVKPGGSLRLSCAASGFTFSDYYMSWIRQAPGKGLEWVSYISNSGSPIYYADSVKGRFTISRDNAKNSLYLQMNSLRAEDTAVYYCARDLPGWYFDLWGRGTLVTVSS VL: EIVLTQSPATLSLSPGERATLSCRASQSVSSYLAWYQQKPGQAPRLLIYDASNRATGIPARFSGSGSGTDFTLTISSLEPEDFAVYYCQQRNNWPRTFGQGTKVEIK , which is 16.8

Kindly note the recorded Kd for P1-068748 (antibody, human IgG1, kappa, V domains shown, also called P1-068748-6) VH: QVQLVESGGGVVQPGRSLRLSCAASGFTFSHHAMHWVRQAPGKGLEWVAIIWYDGSNDDYADSVKGRFTISRDNSKNTLYLQMNSLRAEDTAVYYCARDSGFYDSYYFDYWGQGTLVTVSS VL: EIVLTQSPATLSLSPGERATLSCRASQSVSSSYLAWYQQKPGQAPRLLIYDASNRATGIPARFSGSGSGTDFTLTISSLEPEDFATYYCQQYNSYPYTFGQGTKLEIKR , which is 4.3

***
Kindly note the recorded Kd for P1-068744 (antibody, human IgG1, kappa, V domains shown, also called P1-068744-7) VH: QVQLVESGGGVVQPGRSLRLSCAASGFTFSEYAMHWVRQAPGKGLEWVAHIWYDGSNKYEADSVKGRFTISRDNSKNTLYLQMNSLRAEDTAVYYCARDSGFYESYYFDEWGQGTLVTVSS VL: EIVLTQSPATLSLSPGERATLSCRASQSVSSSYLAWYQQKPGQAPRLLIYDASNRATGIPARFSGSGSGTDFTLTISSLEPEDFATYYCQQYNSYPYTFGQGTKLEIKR , which is 5.1
